Biological target: Dickkopf-related protein 1 (Homo sapiens) (UniProt O94907)
Sequence (O94907 whole entry, looked up): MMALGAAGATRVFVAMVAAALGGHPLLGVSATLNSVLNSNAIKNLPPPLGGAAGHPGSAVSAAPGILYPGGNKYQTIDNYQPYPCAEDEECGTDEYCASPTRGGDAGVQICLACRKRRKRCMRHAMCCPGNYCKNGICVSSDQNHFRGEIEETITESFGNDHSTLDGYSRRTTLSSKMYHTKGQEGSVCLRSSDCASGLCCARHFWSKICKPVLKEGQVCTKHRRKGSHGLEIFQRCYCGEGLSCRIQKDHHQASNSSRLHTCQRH
Assay: DKK1 binders on small-molecule microarrays, primary screen, biochemical, small-molecule microarray, 635 nm fluorescence scan (AID 1106);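 note: score merges emission near 667 nm with signal to noise over three replicate slides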
Conditions: DKK1 binding, higher = more signal
Values of composite z-score greater than or equal to -0.2 map to rule met; values below map to rule not met.

Record excerpt, results attached:
{"columns": ["Compound", "Category"],
 "data": [
  ["O=C1C2C=CC(C(O)CCc3ccccc3)N(Nc3ccccc3F)C2C(=O)N1c1ccccc1 (configuration not stated)", "rule not met"],
  ["COc1ccc(CCNC(=O)[C@@]2(Sc3ccc(C)cc3)CC(=O)N(C(C)C)[C@@H]2c2ccc(CO)cc2I)cc1", "rule not met"]
]}

Request: Can COc1cc(NN2C(C(O)c3ccco3)C=CC3C(=O)N(c4ccccc4)C(=O)C32)cc(OC)c1OC (configuration not stated) be said to have composite z-score at or above -0.2?
Response: rule not met

Request: Can CN(C)CCCC[C@@H]1NC(=O)[C@@H]2C[C@H](C(=O)NCCCCCCN)[C@H](c3cccc(OCCO)c3)N2C1=O be said to have composite z-score at or above -0.2?
Response: rule met

Request: Can CC1(C)[C@@H]2CC(C(O)C3C=CC4C(=O)N(c5ccccc5)C(=O)C4N3Nc3ccc([N+](=O)[O-])cc3)=C[C@H]1C2 (some centres not stated) be said to have composite z-score at or above -0.2?
Response: rule met

Request: Can [N-]=[N+]=NCc1ccccc1[C@@H]1OC(c2ccc(OCCCO)cc2)=N[C@]1(Cc1ccccc1)C(=O)NCC(O)CO (some centres not stated) be said to have composite z-score at or above -0.2?
Response: rule not met

Request: Can CC(C)CNC(=O)[C@@]1(Cc2ccccc2I)c2ccccc2C(=O)N(C2CCCCC2)[C@H]1c1ccc(CO)cc1 be said to have composite z-score at or above -0.2?
Response: rule not met

Request: Can CC(C)C[C@@H]1NC(=O)[C@@H]2C[C@H](C(=O)NCc3ccc(F)cc3)[C@H](c3cccc(OCCO)c3)N2C1=O be said to have composite z-score at or above -0.2?
Response: rule met

Request: Can CN1C(=O)C2C=CC(C(O)c3ccco3)N(Nc3ccccc3)C2C1=O (configuration not stated) be said to have composite z-score at or above -0.2?
Response: rule met

Request: Can CN(C)C(=O)[C@@]1(CCS(=O)(=O)c2ccccc2)COC(c2ccc(OCCCO)cc2)=N1 be said to have composite z-score at or above -0.2?
Response: rule not met

Request: Can CN(C)C(=O)[C@]1(Cc2ccccc2N=[N+]=[N-])N=C(c2ccc(OCCCO)cc2)O[C@@H]1c1ccccc1N=[N+]=[N-] be said to have composite z-score at or above -0.2?
Response: rule met

Request: Can COC(=O)[C@@]1(CCS(=O)(=O)c2ccccc2)N=C(c2ccc(OCCCO)cc2)O[C@H]1c1ccccc1CN=[N+]=[N-] be said to have composite z-score at or above -0.2?
Response: rule met

----------
Target: Concanavalin-A (Canavalia ensiformis) (UniProt P02866)
Sequence (P02866 whole entry, looked up): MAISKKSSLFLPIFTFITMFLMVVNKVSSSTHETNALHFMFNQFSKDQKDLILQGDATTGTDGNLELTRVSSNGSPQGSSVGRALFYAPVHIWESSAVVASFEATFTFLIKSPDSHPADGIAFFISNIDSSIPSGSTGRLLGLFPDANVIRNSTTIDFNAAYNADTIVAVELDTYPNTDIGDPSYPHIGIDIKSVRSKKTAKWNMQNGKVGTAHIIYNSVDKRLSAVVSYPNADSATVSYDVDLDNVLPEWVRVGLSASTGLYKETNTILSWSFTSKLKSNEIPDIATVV
Assay: ConA small-molecule binders, primary screen, artefact control for SMM control protein annotation, biochemical, small-molecule microarray, Alexa647 label, 635 nm (AID 1127);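 note: z combines 667 nm emission intensity with signal-to-noise across three replicate slides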
Conditions: ConA-A647 binding fluorescence, higher = more signal
Endpoint: composite z-score
Form field (numeric): enter value without unit.

Guide cases for composite z-score, answers given:
{"columns": ["Compound", "composite z-score"],
 "data": [
  ["COc1cccc(-c2cccc(=O)o2)c1", -0.664],
  ["COc1ccc([Si](C)(C)[C@@H]2[C@@H](CCO)O[C@]3(C(=O)N(Cc4ccc(N(C=O)c5ccccc5)cc4)c4ccccc43)[C@H]2C)cc1", 0.786],
  ["Cc1ccc([C@@H]2C[C@@H](Sc3ccccc3)[C@H](C(=O)O)CN2S(=O)(=O)c2ccc(C)cc2)cc1", 1.03],
  ["CCCc1cc2c(n1Cc1cc(F)cc(F)c1)C(C)C1CN(C(=O)c3ccccc3)C(C)(C(=O)OC)C21 (stereo unspecified)", 1.11],
  ["O=C1OCCC/C=C\\[C@H]2OC34C=CCN(Cc5ccccc5)C(=O)[C@H]3N(CCCO)C(=O)[C@@H]4C12 (stereo partly specified)", -1.53]
]}

Request: Tell me the measured composite z-score of COc1cc(COC(C)=O)ccc1OC(C)=O , please.
Response: 0.733

Request: Tell me the measured composite z-score of C=C[C@H](CO)NS(=O)(=O)c1ccc(Br)cc1 , please.
Response: 0.549

Request: Tell me the measured composite z-score of NC(=O)[C@@H]1[C@H]2C(=O)O[C@H](c3ccccc3)[C@H](c3ccccc3)N2[C@H](c2ccc(O)cc2)[C@@]12C(=O)Nc1ccccc12 , please.
Response: -0.161

Request: Tell me the measured composite z-score of COC(=O)[C@@]1(Cc2ccc(OC)cc2)[C@H]2c3cc(C(=O)N(C)C)n(C)c3C[C@H]2CN1C(=O)c1ccccc1 , please.
Response: 1.15

Request: Tell me the measured composite z-score of C=C(C(=O)CC[C@@H](OC(=O)c1cccnc1)c1ccccc1OCCO)C(C)C , please.
Response: -0.67

Request: Tell me the measured composite z-score of COc1ccc(-c2cc3c(c(-c4ccc(Oc5ccccc5)cc4)n2)[Si](C(C)C)(C(C)C)OC3)cn1 , please.
Response: 0.478

Request: Tell me the measured composite z-score of COCCCNC(=O)[C@@]1(C)c2ccccc2C(=O)N(C(C)C)[C@H]1c1ccc(CO)cc1 , please.
Response: 0.67

Request: Tell me the measured composite z-score of C=CCC(OC(C)=O)[C@@H]1[C@@H](N(Cc2ccc(-c3ccccc3)cc2)C(=O)c2cccc3ccccc23)c2cc(OCCCO)ccc2N1C(=O)c1ccc(-c2ccccc2)cc1 (stereo partly specified) , please.
Response: -0.249

Request: Tell me the measured composite z-score of O=C1c2ccccc2[C@](Cc2ccccc2I)(C(=O)NCC(F)(F)F)[C@H](c2ccc(CO)cc2)N1Cc1ccccc1Cl , please.
Response: 1.09

Request: Tell me the measured composite z-score of CCCCCCc1nc(-c2cc(C)c(OC)c(C)c2)cc2c1[Si](C(C)C)(C(C)C)OC2 , please.
Response: 0.208

Request: Tell me the measured composite z-score of CC(C)=CCN[C@H](CO)c1ccccc1 , please.
Response: 0.0857

Request: Tell me the measured composite z-score of Cc1ccc(S[C@]2(C(=O)NCCCN(C)C)CC(=O)N(Cc3cc(C(F)(F)F)cc(C(F)(F)F)c3)[C@@H]2c2ccc(CO)cc2)cc1 , please.
Response: -0.949

Request: Tell me the measured composite z-score of C=CCOC(=O)[C@H]1[C@@H]2C(=O)O[C@@H](c3ccccc3)[C@@H](c3ccccc3)N2[C@@H](c2ccc(OCCOC(=O)[C@@H]3C[C@@H]4C(=O)N[C@@H](CCCCNC(C)=O)C(=O)N4[C@@H]3c3ccc(O)cc3)cc2)[C@]12C(=O)Nc1ccccc12 , please.
Response: 1.2

Request: Tell me the measured composite z-score of [N-]=[N+]=NCc1ccccc1[C@@H]1OC(c2ccc(OCCCO)cc2)=N[C@]1(Cc1ccccc1)C(N)=O , please.
Response: 1.16

Request: Tell me the measured composite z-score of COCCOC(=O)N1C(=O)[C@@]2(c3cc(C#CCC(C(=O)OC)C(=O)OC)ccc31)[C@H](c1ccccc1OCCO)N1[C@H](c3ccccc3)[C@H](c3ccccc3)OC(=O)[C@H]1[C@@H]2C(=O)N1CCN(c2ncccn2)CC1 , please.
Response: 1.12

Request: Tell me the measured composite z-score of COC(=O)C(CC#Cc1ccc2c(c1)[C@]1(C(=O)N2)[C@H](c2ccc(OCCO)cc2)N2[C@H](c3ccccc3)[C@H](c3ccccc3)OC(=O)[C@H]2[C@@H]1C(=O)N1CCc2cc(OC)c(OC)cc2C1)C(=O)OC , please.
Response: 1.15
